Provenance of the data: paper PMC7827628

biological target: BteCAι; assay: stopped-flow CO2 hydration assay; conditions: CO2 substrate; 20 °C, pH 7.5, 10 mM HEPES (methods give 20 mM TRIS pH 8.3, 20 mM NaClO4); 15 min preincubation
reported.metric: Ki
Mention the unit after the number when you answer.

Guide cases for Ki, answers given:
molecule=Cc1ccc(-c2cc(C(F)(F)F)nn2-c2ccc(S(N)(=O)=O)cc2)cc1 reported_metric=Ki data_value="960 nM"
molecule=Nc1nccc(Nc2ccc(S(N)(=O)=O)cc2)n1 reported_metric=Ki data_value="93 nM"
molecule=Nc1ccc(S(N)(=O)=O)cc1Br reported_metric=Ki data_value="96 nM"
molecule="CC1(C)O[C@@H]2[C@@H](CO[C@@]3(COS(N)(=O)=O)OC(C)(C)O[C@@H]23)O1 [TPM, topiramate]" reported_metric=Ki data_value="787 nM"
molecule=Cc1onc(-c2ccccc2)c1-c1ccc(S(N)(=O)=O)cc1 reported_metric=Ki data_value="934 nM"
molecule=NS(=O)(=O)c1ccc(N2CCCCS2(=O)=O)cc1 reported_metric=Ki data_value="954 nM"

In: Find the measured Ki of NS(=O)(=O)c1cc(Cl)c(Cl)c(S(N)(=O)=O)c1 [DCP, dichlorphenamide] with BteCAι as test system.
Out: 825 nM

In: Check BteCAι data and give Ki for `O=C1NS(=O)(=O)c2ccccc21` .
Out: 7080 nM

In: // fetch Ki for `NCc1ccc(S(N)(=O)=O)cc1` ; system: BteCAι
Out: 97 nM
